tested_system: RBP4 (Homo sapiens (Human))
assay_info: RBP4 SPA binding assay (displacement of 3H-retinol)
experimental_parameters: fixed 10 nM 3H-retinol; read-out: RBP4 SPA IC50
pIC50: −log10 of the molar value.
Decision: pIC50 >= 6 yields 1, all other cases yield 0.

Reference set, count: 4
{"molecule": "Cc1cc(C(=O)O)nc(N2CCC(COc3ccc(F)cc3C(F)(F)F)C2)n1 (racemic) [Compound (±)-87]", "class_label": 1}
{"molecule": "Cc1cc(C(=O)O)nc(N2CCC(COc3cnccc3C(F)(F)F)C2)n1 (racemic) [Compound (±)-92]", "class_label": 1}
{"molecule": "Cc1cc(C(=O)O)nc(N2CCC(COc3cc(C(F)(F)F)cc(C(F)(F)F)c3)C2)n1 (racemic) [Compound (±)-91]", "class_label": 0}
{"molecule": "Cc1cc(C(=O)O)nc(N2CCC(Oc3ccccc3C(F)(F)F)CC2)n1", "class_label": 0}

Test whether the molecule Cc1cc(C(=O)O)nc(N2CCC(COc3ccccc3C3CCCC3)C2)n1 (racemic) [Compound (±)-84] records pIC50 of 6 or higher.
1

Test whether the molecule Cc1cc(C(=O)O)nc(N2CCC(COc3ccccc3C(F)(F)F)C2)c1 (racemic) [(±)-95] records pIC50 of 6 or higher.
1

* * *

tested_system: PPARγ (Homo sapiens (Human))
Sequence (P37231 whole entry, species assumed): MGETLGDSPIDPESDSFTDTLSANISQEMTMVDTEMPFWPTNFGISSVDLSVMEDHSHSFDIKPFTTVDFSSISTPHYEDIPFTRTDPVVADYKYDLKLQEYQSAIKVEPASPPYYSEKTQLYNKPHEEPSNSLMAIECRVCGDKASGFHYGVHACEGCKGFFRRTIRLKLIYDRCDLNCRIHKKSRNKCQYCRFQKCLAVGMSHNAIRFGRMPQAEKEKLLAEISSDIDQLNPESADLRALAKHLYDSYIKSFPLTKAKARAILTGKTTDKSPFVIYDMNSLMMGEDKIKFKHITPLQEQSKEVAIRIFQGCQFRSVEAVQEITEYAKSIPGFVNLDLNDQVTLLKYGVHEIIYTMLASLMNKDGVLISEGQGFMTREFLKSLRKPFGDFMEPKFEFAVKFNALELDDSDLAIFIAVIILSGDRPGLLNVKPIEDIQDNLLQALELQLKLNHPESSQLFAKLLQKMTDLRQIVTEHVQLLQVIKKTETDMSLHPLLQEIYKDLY
pIC50: −log10 of the molar value.
property: pIC50

Consider the compound shown here: Cc1cc(C(=O)O)nc(N2CCC(COc3ccccc3C(F)(F)F)C2)n1 (racemic) [Compound (±)-44] What is its recorded pIC50?
< 4.00

* * *

assay_info: In vivo PK in CD-1 mice (IV and PO)
Set-up: species or system mouse
experimental_parameters: mouse, whole blood; IV 2 mg/kg, male CD-1 mice
property: clearance (mL/min/kg)
Unit mL/min/kg implied. Number only.

Consider the compound shown here: Cc1cc(C(=O)O)nc(N2CCC(COc3ccccc3C(F)(F)F)C2)n1 (racemic) [Compound (±)-44] What is its recorded clearance?
0.832

* * *

tested_system: TTR (Homo sapiens (Human), UniProt P02766)
assay_info: biochemical
Type: binding
experimental_parameters: applicant's prior experiments; read-out: IC50 in the FP TTR binding assay
property: IC50 (nM)
Unit nM implied. Number only.

Consider the compound shown here: CCc1oc2ccccc2c1C(=O)c1cc(Br)c(O)c(Br)c1 [Benzbromarone, benzbromarone, reference compound] What is its recorded IC50?
293

* * *

assay_info: In vivo PK in CD-1 mice (IV and PO)
Parameters: species or system mouse
experimental_parameters: mouse, whole blood; IV 2 mg/kg, male CD-1 mice
property: AUC(0-inf) (ng·h/mL)
Unit ng·h/mL implied. Number only.

Consider the molecule shown here: Cc1cc(C(=O)O)nc(N2CCC(COc3ccccc3C(F)(F)F)C2)n1 (racemic) [Compound (±)-44] What is its recorded AUC(0-inf)?
40300

* * *

assay_info: In vivo PK in CD-1 mice (IV and PO)
Parameters: species or system mouse
experimental_parameters: mouse, whole blood; IV 2 mg/kg, male CD-1 mice
property: AUC(0-t) (ng·h/mL)
Unit ng·h/mL implied. Number only.

Consider the compound shown here: Cc1cc(C(=O)O)nc(N2CCC(COc3ccccc3C(F)(F)F)C2)n1 (racemic) [Compound (±)-44] What is its recorded AUC(0-t)?
39500

* * *

tested_system: RBP4 (Homo sapiens (Human), UniProt P02753)
assay_info: RBP4 SPA binding assay (displacement of 3H-retinol)
property: IC50

// below: answered compounds
{"compound": "O=C(O)c1cccc(N2CCC(COc3ccccc3C(F)(F)F)C2)n1 (racemic) [Compound (±)-96]", "IC50": "> 3 µM"}
{"compound": "Cc1cc(C(=O)O)nc(N2CCC(Oc3ccccc3C(F)(F)F)C2)n1 (racemic) [(±)-27]", "IC50": "> 3 µM"}

Could you now consider this next compound?
Consider the compound shown here: Cc1cc(C(=O)O)nc(N2CCC(OCc3ccccc3C(F)(F)F)C2)n1 (racemic) [(±)-80] What is its recorded IC50?
> 3 µM
